assay: Intrinsic clearance in rat liver microsomes after 30 mins; assay type: ADME; conditions: read-out: CLH
assay_endpoint: microsomal CLint (µL/min/mg)

These recorded examples may help you get a feel for the data.
- compound: "CC(C)(O)c1ccnc(-c2cccc3cc([C@H](NS(=O)(=O)C4CC4)c4nc(N)c(F)cc4Cl)sc23)c1"
  microsomal CLint, µL/min/mg: 28
- compound: "O=S(=O)(N[C@@H](c1cc2ccccc2s1)c1ccccc1Cl)c1ccc2c(c1)OCC(O)CO2 (mixture of isomers)"
  microsomal CLint, µL/min/mg: 304

(a) CC(C)(O)c1ccnc(-c2cccc3cc([C@H](NS(=O)(=O)C4CC4)c4ccccc4Cl)sc23)c1
(b) CC(C)(O)c1ccnc(-c2cccc3cc([C@H](NS(=O)(=O)C4CC4)c4nc(N)ccc4Cl)sc23)c1
Request: Please compare: a and b . Report which one has the smaller microsomal CLint value. Write down the label of the entry you select.
Response: a
